meta.source: PubChem BioAssay (NCATS)

- Test system: PC26
- assay.explanation: qHTS profiling for inhibitors of Plasmodium falciparum proliferation (AID 504749); also: nearly all actives have a fitted effect of over 60% in size
- condition.details: P. falciparum in erythrocytes, SYBR Green DNA, 72 h; series mostly up to 12.8 µM
Inconclusive results are not listed. Calls of active or inactive are those of the source. Calls follow the shape of the dose curve; as a rule, active = well fitted inhibition curve with a large enough effect; inconclusive = small, poorly fitted or top-dose-only effect; inactive = flat fitted curve, though single readings scatter. Bridge positions count the residues as written; N and C are the ends. Square brackets hold non-standard residues; d marks the D form. Peptide text beside a SMILES is read from it. * marks the point of attachment. Ileψ(thiazoline)Cys = CC[C@H](C)[C@H](N)C1=N[C@H](C(=O)*)CS1; d(aIle) = CC[C@H](C)[C@@H](N)C(=O)O; dOrn = NCCC[C@@H](N)C(=O)O
Possible outcomes: y = active, n = inactive

1. CCC[C@@H]1O[C@@H]2C[C@@H]3[C@H]4CCC5=CC(=O)C=C[C@@]5(C)[C@H]4[C@H](O)C[C@@]3(C)[C@@]2(C(=O)CO)O1 ... y
2. COC1C=CO[C@@]2(C)Oc3c(C)c(O)c4c(O)c(c5c(nc6cc(C)ccn65)c4c3C2=O)NC(=O)/C(C)=C\C=CC(C)C(O)[C@@H](C)C(O)C(C)[C@@H](OC(C)=O)C1C (stereo partly specified) ... y
3. CCN[C@@H]1C[C@H](N)[C@H](O[C@H]2OC(CN)=CC[C@H]2N)[C@@H](O)[C@H]1O[C@H]1OC[C@@](C)(O)[C@@H](NC)[C@@H]1O ... n
4. CC1CCC(C(C)C)C(=O)C1 (stereo unspecified) ... n
5. CC(C)(C)NC[C@@H](O)COc1ccccc1C1CCCC1 ... y
6. C[C@H](Oc1ccccc1)C(=O)N[C@@H]1C(=O)N2[C@@H]1SC(C)(C)[C@@H]2C(=O)O ... n
7. CCC(CCC(C)C1CCC2C3CC=C4CC(O)CC[C@@]4(C)C3CC[C@@]12C)C(C)C (stereo partly specified) ... n
8. C[C@H]1CS(=O)(=O)CCN1/N=C\c1ccc([N+](=O)[O-])o1 ... n
9. COCC(=O)Nc1c(I)c(C(=O)NC[C@@H](O)CO)c(I)c(C(=O)N(C)C[C@@H](O)CO)c1I ... n
10. CN1CC(=O)N=C1N ... n
11. CCOC(=O)O[C@@H](C)OC(=O)[C@@H]1N2C(=O)[C@@H](NC(=O)[C@@H](N)c3ccccc3)[C@H]2SC1(C)C ... n
12. CC1(C)S[C@@H]2[C@H](NC(=O)[C@@H](N)c3ccccc3)C(=O)N2[C@H]1C(=O)O[C@H]1OC(=O)c2ccccc21 ... n
13. NC[C@@H]1O[C@@H](O[C@H]2[C@H](O)[C@H](O[C@@H]3O[C@H](CO)[C@@H](O)[C@H](N)[C@@H]3O)[C@@H](N)C[C@H]2N)[C@H](N)C[C@@H]1O ... n
14. CC1(C)O[C@H]2C[C@@H]3[C@H]4CCC5=CC(=O)CC[C@@]5(C)[C@]4(F)[C@@H](O)C[C@@]3(C)[C@@]2(C(=O)CCl)O1 ... y
15. C1CCN2C[C@@H]3C[C@@H](CN4CCCC[C@H]34)[C@H]2C1 ... n
16. Cc1ncc([N+](=O)[O-])n1C[C@H](O)CCl ... n
17. CC[C@@]12CCCN3CCc4c(n(c5ccccc45)[C@](O)(C(=O)OC)C1)C32 (stereo partly specified) ... n
18. NC[C@@H]1O[C@H](O[C@@H]2[C@H](O[C@@H]3O[C@H](CO)[C@@H](O)[C@@H]3O)[C@@H](O)[C@@H](N)C[C@H]2N)[C@@H](N)[C@H](O)[C@@H]1O ... n
19. Clc1ccc(CC[C@H](Cn2ccnc2)Sc2c(Cl)cccc2Cl)cc1 ... y
20. CC[C@H](C)[C@H](N)C1=N[C@H](C(=O)N[C@@H](CC(C)C)C(=O)N[C@@H](CCC(=O)O)C(=O)N[C@@H](C(=O)N[C@H]2CCCCNC(=O)[C@@H](CC(N)=O)NC(=O)[C@@H](CC(=O)O)NC(=O)[C@@H](Cc3cnc[nH]3)NC(=O)[C@@H](Cc3ccccc3)NC(=O)[C@@H]([C@@H](C)CC)NC(=O)[C@@H](CCCN)NC2=O)[C@@H](C)CC)CS1 ({Ileψ(thiazoline)Cys}-LE[d(aIle)]K[dOrn][d(aIle)][dF][dH][dD][dN]; lactam 4-C) ... n
21. CCCCC[C@H](O)/C=C\[C@H]1[C@H](C/C=C\CCCC(=O)O)[C@@H](O)C[C@H]1O (tested in a mixture with another compound) ... n
22. CC[C@](C)(CN(C)C)OC(=O)c1ccccc1 ... n
23. CC(=O)N[C@@H]1C(O)OC(CO)C(O)C1O (stereo partly specified) ... n
24. CCCC[C@H](CC)CN1CN(C[C@@H](CC)CCCC)CC(C)(N)C1 ... n
25. COc1ccc2cc1Oc1ccc(cc1)CC1c3c(cc4c(c3Oc3cc5c(cc3OC)CCN(C)C5C2)OCO4)CCN1C (stereo unspecified) ... y
26. Cn1nnnc1SCC1=C(C(=O)O)N2C(=O)[C@@H](NC(=O)[C@@H](O)c3ccccc3)[C@@H]2SC1 ... n
27. CC1(C)OC2CC(=O)OC[C@@]23C1CC(=O)[C@]1(C)C3CC[C@@]2(C)C(c3ccoc3)OC(=O)C3O[C@@]321 (stereo partly specified) ... n
28. C[C@H](N[C@@H](C)COc1ccccc1)[C@H](O)c1ccc(O)cc1 ... n
29. Cc1ccc(S(=O)(=O)NC(=O)NN2C[C@H]3CCC[C@@H]3C2)cc1 ... n
30. CC[C@H](Cc1c(I)cc(I)c(N)c1I)C(=O)O ... n
31. COc1ccc(OC)c([C@H](O)CNC(=O)CN)c1 ... n
